// provenance: ChEMBL document CHEMBL5058577

Quick list: Population Membrane Permeable-Phenotype (%) per entry.
Tested on: Fibroblast
Test: Multiplex assay against human fibroblast
Type: toxicity, cell-based
Assay Setup: 48 h, 1 µM, compound concentration 1 uM, replicate 1
Value Type: Population Membrane Permeable-Phenotype (%)

Compound	Value Units	Readout Value
Nc1nc(-c2ccco2)c2cnn(Cc3ccccc3F)c2n1	%	2
C[C@H](NC(=O)CNC(=O)c1cccc(Cl)c1)c1ccccc1	%	0
CN(C)C(=O)Cn1cc(-c2ccc(-c3nnc4ccccn34)cc2)cn1	%	4
COc1cc(C(=O)N2CC[C@@H](O)[C@@H](N)C2)cc2nc(-c3cc4ccccc4n3CC3CC3)n(C)c12.Cl	%	0
COc1cc(Nc2ncc3c(n2)-c2ccc(Cl)cc2C(c2c(F)cccc2OC)=NC3)ccc1C(=O)O [ALISERTIB]	%	4
COc1ccc2[nH]c(I)c(CCNC(C)=O)c2c1 [IODOMELATONIN]	%	0
CCC(=O)OCC(=O)[C@@]1(OC(=O)CC)[C@@H](C)C[C@H]2[C@@H]3CCC4=CC(=O)C=C[C@]4(C)[C@@]3(Cl)[C@@H](O)C[C@@]21C [BECLOMETHASONE DIPROPIONATE]	%	1
S=C(NCCCc1c[nH]cn1)NCCCN(Cc1ccc(Cl)c(Cl)c1)c1ccc(Br)cn1	%	0
CCc1nn2c(C)cc(C)nc2c1Cc1ccc(-c2nnc(C3CCNCC3)o2)cc1	%	1
COc1ccc2c(c1OCc1ccccc1)C[C@@H](C(=O)O)N(C(=O)C(c1ccccc1)c1ccccc1)C2 [OLODANRIGAN]	%	0
Cc1nn(C)c2nc(NNC(=O)Nc3cc(Cl)nc(Cl)c3)cc(C(C)C)c12	%	1
O=C(NCCNCC(O)COc1ccc(O)cc1)N1CCOCC1.O=C(NCCNCC(O)COc1ccc(O)cc1)N1CCOCC1.O=C(O)/C=C/C(=O)O (centres undefined) [XAMOTEROL FUMARATE]	%	1
CCCCCCNC(=O)Nc1ccc(S(=O)(=O)Nc2ccc(CCNC[C@H](O)COc3ccc(O)cc3)cc2)cc1 [L-755507]	%	0
Cn1cc(C(=O)OCC2CCN(CCNS(C)(=O)=O)CC2)c2ccccc21	%	0
CSc1nc(NC2CCCC2)c([N+](=O)[O-])c(NC2CCCC2)n1 [GS-39783]	%	1
CN1CCN(c2ccc(Nc3c4ccccc4nc4ccccc34)cc2)CC1.Cl.Cl.O	%	0
O=c1nc2[nH]c3ccccc3nc-2c(=O)[nH]1 [ALLOXAZINE]	%	0
Cc1cc(-c2ccc3c(c2)CC[C@H]3N2CC3(CCN(C(=O)Cc4cn5cc(C)sc5n4)CC3)C2)ncn1 [PF-5190457]	%	2
Cc1ccc(OCC(O)C(C)NC(C)C)c2c1CCC2.Cl (centres undefined)	%	0
O=C(Nc1cc(-c2ccccc2)nn1-c1ccccc1F)c1ccc([N+](=O)[O-])cc1	%	1
O=c1ccc2ccc(OCCCCN3CCN(c4cccc5sccc45)CC3)cc2[nH]1 [BREXPIPRAZOLE]	%	0
CN1CCN2c3ccccc3Cc3ccccc3C2C1.Cl (centres undefined) [MIANSERIN HYDROCHLORIDE]	%	0
CN1CCC(C(=O)c2cccc(NC(=O)c3c(F)cc(F)cc3F)n2)CC1	%	0
CN1C[C@H](C(=O)N[C@]2(C)O[C@@]3(O)[C@@H]4CCCN4C(=O)[C@H](Cc4ccccc4)N3C2=O)C[C@@H]2c3cccc4[nH]cc(c34)C[C@H]21.CS(=O)(=O)O [DIHYDROERGOTAMINE MESYLATE]	%	0
CCCCC[C@H](O)/C=C/[C@H]1[C@H](O)CC(=O)[C@@H]1CCCCCCC(=O)O [ALPROSTADIL]	%	1
Cc1cc(NC(=O)NCCN2CCC(O)(Cc3ccccc3)CC2)c2ccccc2n1 [PALOSURAN]	%	0
C[C@@H]1CC(=O)Nc2cccc(-c3ccc4c(c3)c(-c3cnn(C)c3)nn4C)c2N1	%	1
Cc1c(Cc2ccc3ccccc3n2)c2cc(F)ccc2n1CC(=O)O [TIMAPIPRANT]	%	0
C=CCN1C[C@H](C(=O)N(CCCN(C)C)C(=O)NCC)C[C@@H]2c3cccc4[nH]cc(c34)C[C@H]21 [CABERGOLINE]	%	0
